Molecular target: Porcine DPP-IV (Sus scrofa, UniProt P22411)
Construct: purchased Sigma-Aldrich Germany
Sequence (P22411 whole entry): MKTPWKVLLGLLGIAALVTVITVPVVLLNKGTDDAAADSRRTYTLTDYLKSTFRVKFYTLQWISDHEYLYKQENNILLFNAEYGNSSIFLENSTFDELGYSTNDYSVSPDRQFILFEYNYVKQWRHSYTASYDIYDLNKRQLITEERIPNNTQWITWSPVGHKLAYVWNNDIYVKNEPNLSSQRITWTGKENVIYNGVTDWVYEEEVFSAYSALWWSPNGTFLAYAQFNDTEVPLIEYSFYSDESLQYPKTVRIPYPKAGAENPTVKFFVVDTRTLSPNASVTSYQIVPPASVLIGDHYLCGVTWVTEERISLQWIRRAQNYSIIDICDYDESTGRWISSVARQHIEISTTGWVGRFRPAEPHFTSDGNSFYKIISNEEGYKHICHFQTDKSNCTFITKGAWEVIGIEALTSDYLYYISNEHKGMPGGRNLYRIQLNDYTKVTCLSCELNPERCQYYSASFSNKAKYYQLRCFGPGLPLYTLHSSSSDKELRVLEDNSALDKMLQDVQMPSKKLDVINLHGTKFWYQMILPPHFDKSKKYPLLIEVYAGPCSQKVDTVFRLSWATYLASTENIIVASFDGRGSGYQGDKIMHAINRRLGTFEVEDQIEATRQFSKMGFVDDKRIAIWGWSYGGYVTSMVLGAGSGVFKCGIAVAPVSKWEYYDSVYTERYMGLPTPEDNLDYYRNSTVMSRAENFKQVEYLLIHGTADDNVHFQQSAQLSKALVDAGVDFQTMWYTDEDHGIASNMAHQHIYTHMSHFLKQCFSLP
Test: Assay of DPP-IV enzyme inhibitory activity (spectrophotometric, Gly-Pro-pNA cleavage)
Format: biochemical
Conditions: read-out: dipeptidyl peptidase-IV inhibitory IC50's in the range
Protocol: Assay of DPP-IV Enzyme Inhibitory Activity. The assay method is a modified method (as described by Welch et al, 1998) based on spectrophotometric determination of the product formed by penultimate proline cleaving activity of the enzyme. […] The percentage inhibition % I, is calculated using the formula: […]
pIC50: −log10 of the molar value.
Parameter measured: pIC50

* N#Cc1ccc(NC(=O)CN2CCC(N(N)CC(=O)N3CSCC3C#N)CC2)cc1 (centres unmarked) [Compound No. 99] | 6.60 to 7.06

With those in mind, consider the next molecule.
Tested system Porcine DPP-IV (Sus scrofa, UniProt P22411); pIC50 recorded for N#CC1CSCN1C(=O)CN(N)C1CCN(CC(=O)NC2CC2)CC1 (centres unmarked) [Compound No. 108] was 6.60 to 7.06

====

Target: Porcine DPP-IV (Sus scrofa, UniProt P22411)
Construct: purchased Sigma-Aldrich Germany
Experiment: Assay of DPP-IV enzyme inhibitory activity (spectrophotometric, Gly-Pro-pNA cleavage)
Type: biochemical
Settings: Porcine DPP-IV, Gly-Pro-pNA substrate, 30° C.; mean ± SD of three experiments except compound Nos. 133 & 139; read-out: IC50 (μM) Mean ± SD, inhibitory activity on DPP-IV enzyme activity
Parameter measured: IC50 (µM)

# count of solved cases: 2
* CC(C)NN(CC(=O)N1CCCC1C#N)C1CCCCC1 (centres unmarked) [Compound No. 38] | 96.9
* CC1CCC(NNCC(=O)N2CCCC2C#N)CC1 (centres unmarked) [Compound No. 26] | 10

(P) N#CC1CSCN1C(=O)CN(N)C1CCN(c2ccc(C(F)(F)F)cn2)CC1 (centres unmarked) [Compound No. 77]
(Q) Cc1nc(NC(=O)CN2CCC(N(N)CC(=O)N3CSCC3C#N)CC2)sc1C (centres unmarked) [compound 119]
(R) CC1CCC(NN(C)CC(=O)N2CSCC2C#N)CC1 (centres unmarked) [Compound No. 69]
Query :: Give the ascending ranking of the items by reported IC50. Please write the labels in the order that was asked for.
Result :: Q, P, R
(Q: 0.185 µM, P: 0.67 µM, R: 69 µM)

====

Target: Porcine DPP-IV (Sus scrofa, UniProt P22411)
Construct: purchased Sigma-Aldrich Germany
Experiment: Assay of DPP-IV enzyme inhibitory activity (spectrophotometric, Gly-Pro-pNA cleavage)
Assay type: biochemical
Conditions: Porcine DPP-IV, Gly-Pro-pNA substrate, 30° C.; mean ± SD of three experiments except compound Nos. 133 & 139; read-out: IC50 (μM) Mean ± SD, inhibitory activity on DPP-IV enzyme activity
Parameter measured: IC50 (µM)

# count of solved cases: 3
• N#CC1CSCN1C(=O)CN(N)C(=O)N1CCOCC1 (centres unmarked) = 38.2
• N#CC1CSCN1C(=O)CN(NC(=O)NCCc1ccccn1)C(=O)NCCc1ccccn1 (centres unmarked) = 78.6
• N#CC1CCCN1C(=O)CN(N)C1CCN(S(=O)(=O)c2ccc(Cl)cc2)CC1 (centres unmarked) = 48.9

(I) N#CC1CSCN1C(=O)CN(N)C1CCN(CC(=O)Nc2nccs2)CC1 (centres unmarked)
(II) N#CC1CSCN1C(=O)CN(N)C1CCCCCC1 (centres unmarked)
Query :: Given the two records I and II , choose the one whose IC50 value is lower. Indicate which entry you chose by stating its label.
Result :: I
